B1: LINE1-full (parent)
chain: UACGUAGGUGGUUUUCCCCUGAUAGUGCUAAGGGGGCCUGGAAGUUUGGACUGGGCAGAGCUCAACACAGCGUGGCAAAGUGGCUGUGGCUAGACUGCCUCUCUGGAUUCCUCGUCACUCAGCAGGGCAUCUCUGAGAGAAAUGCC

Variants of: B1
Experiment: self-cleavage, relative activity (ratio to wild type); higher = more cleavage; in vitro, sequencing; the parent is a self-cleaving ribozyme
I would appreciate it if you labelled entries Yes when self-cleavage is 1 or higher, otherwise No.

A6G U109C : No
U45C G75A : Yes
G127C U132C : Yes

Confirm if self-cleavage reported for the variant U52C C111A is 1 or above.
Yes

Item A77G A124U with self-cleavage of 1 or above?
Yes

Decide: self-cleavage of C16U A67G >= 1?
No

Answer whether self-cleavage of G32C A142G is greater than or equal to 1.
Yes

For this variant, is measured self-cleavage 1 or higher? C3U U20C
No

API: above_or_equal(metric=self-cleavage, cutoff=1) for item U9C G35U
Yes

Check the entry C38A U143G : does self-cleavage equal or exceed 1?
Yes

Given U91A U134A , state whether its self-cleavage is at least 1.
No
